Property: IC50; scope: individual compounds
molecular target: integrin αvβ5 (Homo sapiens, UniProt P06756+P18084); construct: purchased Chemicon CC1022; experiment: Binding to integrin αvβ5 receptors ((125I) Echistatin displacement); details: 0.05 nM (125I) Echistatin, plate coated with 1 μg/ml integrin; read-out: αvβ5 IC50 ± SD
Sequence (P06756 31-889 limits assumed): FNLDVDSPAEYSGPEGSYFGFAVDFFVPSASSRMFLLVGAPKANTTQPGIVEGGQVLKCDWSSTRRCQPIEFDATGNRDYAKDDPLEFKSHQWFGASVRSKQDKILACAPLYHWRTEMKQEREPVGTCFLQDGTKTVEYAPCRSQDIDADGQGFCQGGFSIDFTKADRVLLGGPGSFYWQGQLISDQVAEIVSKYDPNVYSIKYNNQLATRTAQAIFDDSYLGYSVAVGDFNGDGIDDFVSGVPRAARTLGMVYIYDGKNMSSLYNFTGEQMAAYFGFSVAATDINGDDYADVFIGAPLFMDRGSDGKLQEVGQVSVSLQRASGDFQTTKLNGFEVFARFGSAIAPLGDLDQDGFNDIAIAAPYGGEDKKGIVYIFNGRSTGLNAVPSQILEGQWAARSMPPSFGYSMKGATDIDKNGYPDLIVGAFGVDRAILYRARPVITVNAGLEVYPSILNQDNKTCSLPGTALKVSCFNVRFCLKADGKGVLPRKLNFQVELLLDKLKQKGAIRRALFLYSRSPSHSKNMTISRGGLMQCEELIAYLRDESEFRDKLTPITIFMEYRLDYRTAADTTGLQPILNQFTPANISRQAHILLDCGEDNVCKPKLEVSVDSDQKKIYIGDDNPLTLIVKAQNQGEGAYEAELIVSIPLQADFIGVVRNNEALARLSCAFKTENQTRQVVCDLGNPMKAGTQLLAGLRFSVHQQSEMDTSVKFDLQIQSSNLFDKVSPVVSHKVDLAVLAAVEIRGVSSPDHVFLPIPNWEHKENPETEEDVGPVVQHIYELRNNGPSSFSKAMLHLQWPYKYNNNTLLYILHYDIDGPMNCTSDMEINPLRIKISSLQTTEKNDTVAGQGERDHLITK
Sequence (P06756 891-1048 partner limits assumed): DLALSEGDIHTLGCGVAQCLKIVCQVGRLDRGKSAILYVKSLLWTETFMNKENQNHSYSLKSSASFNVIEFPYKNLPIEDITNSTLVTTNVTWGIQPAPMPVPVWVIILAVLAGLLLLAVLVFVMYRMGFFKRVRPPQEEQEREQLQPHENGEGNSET
Sequence (P18084 24-799): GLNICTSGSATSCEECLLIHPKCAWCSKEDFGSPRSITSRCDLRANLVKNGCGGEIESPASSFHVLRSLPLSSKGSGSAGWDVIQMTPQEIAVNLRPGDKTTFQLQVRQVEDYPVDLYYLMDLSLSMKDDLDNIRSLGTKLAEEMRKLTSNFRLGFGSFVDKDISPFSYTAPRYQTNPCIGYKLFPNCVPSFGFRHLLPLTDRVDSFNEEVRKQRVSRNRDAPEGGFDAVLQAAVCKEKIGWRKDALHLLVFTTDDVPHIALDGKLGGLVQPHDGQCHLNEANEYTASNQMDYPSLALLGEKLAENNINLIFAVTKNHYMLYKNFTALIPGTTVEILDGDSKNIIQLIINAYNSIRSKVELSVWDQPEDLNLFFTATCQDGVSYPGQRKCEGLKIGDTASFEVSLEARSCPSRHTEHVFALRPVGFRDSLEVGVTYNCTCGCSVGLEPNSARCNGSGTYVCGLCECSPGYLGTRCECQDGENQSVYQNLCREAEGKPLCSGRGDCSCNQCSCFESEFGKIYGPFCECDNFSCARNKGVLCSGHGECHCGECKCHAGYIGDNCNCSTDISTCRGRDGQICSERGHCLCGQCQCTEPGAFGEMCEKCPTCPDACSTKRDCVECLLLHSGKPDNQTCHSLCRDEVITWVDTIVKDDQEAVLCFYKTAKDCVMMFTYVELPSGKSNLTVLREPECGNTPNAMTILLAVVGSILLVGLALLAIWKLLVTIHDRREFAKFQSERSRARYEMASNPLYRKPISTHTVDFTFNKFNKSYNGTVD
Recorded endpoint: IC50 (nM)

1) CC(C)[C@@H]1NC(=O)C(Cc2ccccc2)(C(F)(F)F)NC(=O)[C@H](CC(=O)O)NC(=O)CNC(=O)[C@H](CCCNC(=N)N)NC1=O (single isomer, unassigned) [ST2191, c(Arg-Gly-Asp-(R o S)-Tfm-Phe-Val)]	10
2) CC(C)[C@@H]1NC(=O)C(Cc2ccccc2)(C(F)(F)F)NC(=O)[C@H](CC(=O)O)NC(=O)CNC(=O)[C@H](CCCNC(=N)N)NC1=O (single isomer, unassigned) [ST2192, c(Arg-Gly-Asp-(R o S)-Tfm-Phe-Val)]	72.7
